Test system: SK-MEL-28
test-name: Inhibition of cells growth by colorimetric assay (SRB), SK-MEL-28
Type: cell-based
test-parameters: Homo sapiens, SK-MEL-28, 48 h, read-out: MEL-28 LC50, SRB assay, 48 hours exposure
Friendly reminder: CC50 below 0.01 µM is met, at or above is not met.

COc1cc2c(cc1OC(=O)/C=C/c1ccccc1)CCN[C@]21CS[C@@H]2c3c(OC(C)=O)c(C)c4c(c3[C@H](COC1=O)N1C2[C@@H]2N[C@@H](Cc3cc(C)c(OC)c(O)c32)[C@@H]1O)OCO4 (some centres unmarked); met
COc1cc2c(cc1O)CCN(C)[C@]21CS[C@@H]2c3c(OC(C)=O)c(C)c4c(c3[C@H](COC1=O)N1C2[C@@H]2N[C@@H](Cc3cc(C)c(OC)c(O)c32)[C@@H]1C#N)OCO4 (some centres unmarked); met

Prompt line: Please let me know if COc1cc2c(cc1O)CCN[C@]21CS[C@@H]2c3c(OC(=O)CCCCC4SCC5NC(=O)NC54)c(C)c4c(c3[C@H](COC1=O)N1C2[C@H]2c3c(cc(C)c(OC)c3O)C[C@@H]([C@@H]1O)N2C)OCO4 (some centres unmarked) shows CC50 below 0.01 µM.
Response line: not met

Prompt line: Likewise for COc1cc2c(cc1O)CCN[C@]21CS[C@@H]2c3c(OC)c(C)c4c(c3[C@H](COC1=O)N1C2[C@H]2c3c(cc(C)c(OC)c3O)C[C@@H]([C@@H]1O)N2C)OCO4 (some centres unmarked) ?
Response line: met

Prompt line: Likewise for C=COC(=O)Oc1c(C)c2c(c3c1[C@H]1SC[C@]4(NCCc5cc(OC(=O)OC(C)(C)C)c(OC)cc54)C(=O)OC[C@@H]3N3C1[C@H]1c4c(cc(C)c(OC)c4O)C[C@@H]([C@@H]3O)N1C)OCO2 (some centres unmarked) ?
Response line: not met

Prompt line: Likewise for COc1cc2c(cc1O)CCN[C@]21CS[C@@H]2c3c(OC(=O)CCCCC4SCC5NC(=O)NC54)c(C)c4c(c3[C@H](COC1=O)N1C2[C@H]2c3c(cc(C)c(OC)c3OC(=O)CCCCC3SCC5NC(=O)NC53)C[C@@H]([C@@H]1O)N2C)OCO4 (some centres unmarked) ?
Response line: met

Prompt line: Likewise for COc1cc2c(cc1OC(=O)OC(C)(C)C)CCN[C@]21CS[C@@H]2c3c(OC(=O)OC(C)(C)C)c(C)c4c(c3[C@H](COC1=O)N1C2[C@H]2c3c(cc(C)c(OC)c3O)C[C@@H]([C@@H]1O)N2C)OCO4 (some centres unmarked) ?
Response line: not met

Prompt line: Likewise for COc1cc2c(cc1O)CCN[C@]21CS[C@@H]2c3c(OC(=O)C(F)(F)C(F)(F)C(F)(F)F)c(C)c4c(c3[C@H](COC1=O)N1C2[C@H]2c3c(cc(C)c(OC)c3O)C[C@@H]([C@@H]1O)N2C)OCO4 (some centres unmarked) ?
Response line: not met

Prompt line: Likewise for COc1cc2c(cc1OC(=O)OC(C)(C)C)CCN[C@]21CS[C@@H]2c3c(OC(=O)[C@H](C)NC(=O)OC(C)(C)C)c(C)c4c(c3[C@H](COC1=O)N1C2[C@H]2c3c(cc(C)c(OC)c3O)C[C@@H]([C@@H]1O)N2C)OCO4 (some centres unmarked) ?
Response line: not met

Prompt line: Likewise for COc1cc2c(cc1O)CCN[C@]21CS[C@@H]2c3c(O)c(C)c4c(c3[C@H](COC1=O)N1C2[C@H]2c3c(cc(C)c(OC)c3O)C[C@@H]([C@@H]1O)N2C)OCO4 (some centres unmarked) ?
Response line: not met
